measured.parameter: melting point

N#Cc1cccc(-c2ccc(=O)n(Cc3cccc(-c4ncc(OCCN5CCNCC5)cn4)c3)n2)c1	149 to 150 °C
COc1cnc(-c2cccc(Cn3nc(-c4cccc(C#N)c4)ccc3=O)c2)nc1	229 to 230 °C
CC(C)(C)OC(=O)N1CCC(COc2cnc(-c3cccc(Cn4nc(-c5cccc(C(N)=O)c5)ccc4=O)c3)nc2)CC1	197 to 198 °C
CC(C)Oc1cnc(-c2cccc(Cn3nc(-c4cccc(C#N)c4)ccc3=O)c2)nc1 [Compound D2]	200 to 201 °C

Query: I would be grateful if you could share the reported melting point for CNC(=O)COc1cnc(-c2cccc(Cn3nc(-c4cnn(C)c4)ccc3=O)c2)nc1 .
Result: 242 to 243 °C
